# assayed_system: SNT
# experimental_protocol: BIAcore

# binder, Kd [pM]
rows = [
    ("LY6G6D (other) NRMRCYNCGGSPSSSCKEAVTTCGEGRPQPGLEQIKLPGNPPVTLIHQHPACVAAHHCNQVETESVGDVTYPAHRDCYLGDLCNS", 250),
]
